- test system: PSG G322A G335A (PSD-95)
- protocol description: FP displacement (competition) of FITC-15 AA CRIPT by library peptide, IC50 and Ki
- condition description: read-out: IC50 (µM), PSG G322A G335A; FP displacement of FITC-15 AA CRIPT probe by acetylated PSD library peptide (P-13 to P0 plus extra N-terminal Y)
Measured IC50, listed per entry for reference.
measured endpoint: IC50 (µM)

>>> quantitative_result("CC(=O)N[C@@H](Cc1ccc(O)cc1)C(=O)N[C@H](C(=O)N[C@@H](CCC(=O)O)C(=O)N[C@@H](CO)C(=O)N[C@@H](CCCCN)C(=O)N[C@@H](CCCCN)C(=O)N[C@@H](Cc1c[nH]cn1)C(=O)NCC(=O)N[C@@H](CCCNC(=N)N)C(=O)N[C@@H](Cc1c[nH]c2ccccc12)C(=O)N[C@@H](CCCCN)C(=O)N[C@@H](CC(C)C)C(=O)N[C@@H](Cc1c[nH]c2ccccc12)C(=O)N[C@@H](Cc1ccccc1)C(=O)N[C@@H](CC(C)C)C(=O)O)[C@@H](C)O")
980
>>> quantitative_result("CC[C@H](C)[C@H](NC(=O)[C@H](CC(=O)O)NC(=O)[C@H](CCC(N)=O)NC(=O)CNC(=O)[C@@H](NC(=O)[C@H](CC(C)C)NC(=O)[C@@H]1CCCN1C(=O)[C@H](Cc1ccc(O)cc1)NC(C)=O)C(C)C)C(=O)N[C@H](C(=O)N[C@@H](CC(=O)O)C(=O)N[C@@H](CC(C)C)C(=O)N[C@@H](CCC(N)=O)C(=O)N[C@H](C(=O)N[C@@H](CCC(=O)O)C(=O)N[C@H](C(=O)O)C(C)C)[C@@H](C)O)[C@@H](C)CC")
112
>>> quantitative_result("CC(=O)N[C@@H](Cc1ccc(O)cc1)C(=O)N[C@@H](CC(C)C)C(=O)N[C@@H](Cc1c[nH]cn1)C(=O)NCC(=O)N[C@@H](Cc1c[nH]cn1)C(=O)N[C@@H](CCCNC(=N)N)C(=O)N[C@@H](Cc1ccc(O)cc1)C(=O)N[C@@H](CO)C(=O)N[C@@H](CO)C(=O)NCC(=O)N[C@@H](CO)C(=O)N[C@@H](CCCNC(=N)N)C(=O)N[C@@H](CO)C(=O)N[C@@H](CC(C)C)C(=O)N[C@H](C(=O)O)C(C)C")
570
>>> quantitative_result("CC[C@H](C)[C@H](NC(=O)[C@H](Cc1ccccc1)NC(=O)[C@H](Cc1ccc(O)cc1)NC(=O)[C@@H]1CCCN1C(=O)[C@H](CCC(N)=O)NC(=O)[C@H](Cc1ccc(O)cc1)NC(C)=O)C(=O)N[C@H](C(=O)N[C@@H](CC(N)=O)C(=O)N[C@@H](CO)C(=O)N[C@@H](CCCCN)C(=O)N[C@H](C(=O)N[C@@H](CCC(=O)O)C(=O)N[C@H](C(=O)N[C@H](C(=O)N[C@H](C(=O)O)C(C)C)[C@@H](C)O)C(C)C)[C@@H](C)O)[C@@H](C)O")
994

---

- test system: PSG G322A G335A (PSD-95)
- protocol description: FP displacement (competition) of FITC-15 AA CRIPT by library peptide, IC50 and Ki
- condition description: read-out: IC50 (µM), PSG G322A G335A; FP displacement of FITC-15 AA CRIPT probe by acetylated PSD library peptide (P-13 to P0 plus extra N-terminal Y)
Ends that are not written are not given here.
measured endpoint: IC50 (µM)

>>> quantitative_result("Ac-YQSGPFIWIPSKEKL [DLG2]")
734
>>> quantitative_result("Ac-YDVVAVYPNAKVELV [PDLI4]")
881
>>> quantitative_result("Ac-YQARRGKKKSGSLVL [RHOA]")
1320

---

- test system: PSG G322A (PSD-95)
- protocol description: FP displacement (competition) of FITC-15 AA CRIPT by library peptide, IC50 and Ki
- condition description: read-out: Ki (µM), PSG G322A; FP displacement of FITC-15 AA CRIPT probe by PSD library peptide; protein PSG G322A
measured endpoint: Ki (µM)

>>> quantitative_result("CC(=O)N[C@@H](Cc1ccc(O)cc1)C(=O)N[C@@H](Cc1ccc(O)cc1)C(=O)N[C@@H](CCC(=O)O)C(=O)N[C@H](C(=O)N[C@@H](CO)C(=O)N[C@@H](Cc1c[nH]cn1)C(=O)N[C@@H](Cc1ccc(O)cc1)C(=O)N1CCC[C@H]1C(=O)N[C@@H](C)C(=O)N[C@@H](CO)C(=O)N1CCC[C@H]1C(=O)N[C@@H](CC(=O)O)C(=O)N[C@@H](CO)C(=O)N[C@@H](Cc1c[nH]c2ccccc12)C(=O)N[C@H](C(=O)O)C(C)C)[C@@H](C)O")
301
>>> quantitative_result("CC[C@H](C)[C@H](NC(=O)[C@H](CO)NC(=O)[C@@H]1CCCN1C(=O)[C@H](CCSC)NC(=O)[C@H](CCCCN)NC(=O)[C@H](CCCCN)NC(=O)[C@H](Cc1ccc(O)cc1)NC(=O)[C@@H](NC(=O)[C@H](CCCNC(=N)N)NC(=O)[C@H](CCCNC(=N)N)NC(=O)[C@H](Cc1ccc(O)cc1)NC(C)=O)C(C)C)C(=O)N[C@@H](CCC(=O)O)C(=O)N[C@@H](CO)C(=O)N[C@@H](CC(=O)O)C(=O)N[C@H](C(=O)O)C(C)C")
66
>>> quantitative_result("CC[C@H](C)[C@H](NC(=O)[C@H](CCCCN)NC(=O)[C@@H]1CCCN1C(=O)[C@H](CC(C)C)NC(=O)[C@H](CCCNC(=N)N)NC(=O)[C@H](Cc1c[nH]cn1)NC(=O)[C@H](CO)NC(=O)CNC(=O)[C@H](CC(=O)O)NC(=O)[C@H](Cc1ccc(O)cc1)NC(C)=O)C(=O)N[C@@H](CCCCN)C(=O)N[C@@H](CCC(=O)O)C(=O)N[C@H](C(=O)N[C@H](C(=O)N[C@H](C(=O)O)C(C)C)[C@@H](C)O)[C@@H](C)O")
1.33
>>> quantitative_result("CC(=O)N[C@@H](Cc1ccc(O)cc1)C(=O)N[C@@H](CC(=O)O)C(=O)N[C@@H](CCCCN)C(=O)N[C@@H](CCCNC(=N)N)C(=O)N[C@@H](CC(=O)O)C(=O)N[C@@H](CO)C(=O)N[C@@H](CCC(=O)O)C(=O)N[C@@H](CCC(=O)O)C(=O)N[C@@H](CCC(=O)O)C(=O)N[C@@H](CO)C(=O)N[C@@H](CCC(=O)O)C(=O)N[C@@H](CO)C(=O)N[C@H](C(=O)N[C@@H](C)C(=O)N[C@@H](CC(C)C)C(=O)O)[C@@H](C)O")
526
>>> quantitative_result("CC(=O)N[C@@H](Cc1ccc(O)cc1)C(=O)N1CCC[C@H]1C(=O)N[C@@H](CCC(N)=O)C(=O)N[C@@H](Cc1c[nH]cn1)C(=O)N[C@@H](CC(C)C)C(=O)N[C@@H](CCCNC(=N)N)C(=O)N[C@H](C(=O)N[C@@H](C)C(=O)N[C@@H](CO)C(=O)N[C@@H](CCCCN)C(=O)N[C@@H](CC(N)=O)C(=O)N[C@@H](CCC(=O)O)C(=O)N[C@H](C(=O)N[C@H](C(=O)N[C@H](C(=O)O)C(C)C)[C@@H](C)O)C(C)C)[C@@H](C)O")
301
>>> quantitative_result("CC[C@H](C)[C@H](NC(=O)[C@H](CCC(=O)O)NC(=O)[C@@H](NC(=O)[C@H](CO)NC(=O)[C@H](CCC(=O)O)NC(=O)[C@@H](NC(=O)[C@H](CCCNC(=N)N)NC(=O)[C@H](CCC(=O)O)NC(=O)[C@H](CC(C)C)NC(=O)[C@H](CCCNC(=N)N)NC(=O)[C@H](CO)NC(=O)[C@@H]1CCCN1C(=O)[C@@H](NC(=O)[C@H](Cc1c[nH]c2ccccc12)NC(=O)[C@H](Cc1ccc(O)cc1)NC(C)=O)[C@@H](C)O)[C@@H](C)CC)[C@@H](C)O)C(=O)O")
200
>>> quantitative_result("CC(=O)N[C@@H](Cc1ccc(O)cc1)C(=O)N[C@@H](CO)C(=O)N[C@@H](CO)C(=O)N[C@H](C(=O)N[C@@H](CO)C(=O)N1CCC[C@H]1C(=O)N[C@@H](CCC(N)=O)C(=O)N[C@@H](CO)C(=O)N[C@H](C(=O)N[C@@H](CC(=O)O)C(=O)N[C@@H](CCCCN)C(=O)N[C@@H](CO)C(=O)N[C@@H](CO)C(=O)N[C@H](C(=O)N[C@H](C(=O)O)C(C)C)[C@@H](C)O)[C@@H](C)O)[C@@H](C)O")
343
